Reported manual score values for a set of compounds
test: thallium influx changes without GIRK channels – cell-based, HEK-293 rmGlu8, no GIRK, thallium flux, counter-screen for GIRK activator project, confirmation (AID 623868); conditions: thallium flux fluorescence, at 10 µM, actives lie on both sides, codes: 1 enhancer, -1 blocker, 0 none, thallium stimulus containing EC20 glutamate;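 further: extra codes mark interference with 3 for fluorescent and 4 for baseline rise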
Among all 2,100 compounds or so, about 760 (36%) were called active. These entries were drawn from the full list.

COMPOUND	manual score
COC(=O)c1ccc(NC(=S)NC(=O)c2cc(-c3ccccc3)nc3ccccc23)cc1	1
CC(C)OC(=O)/C(=C/c1cccnc1)NC(=O)c1ccccc1	0
O=C(CSc1nnc2ccccn12)Nc1nsc(-c2ccccc2)n1	0
Cc1ccc(OCC(=O)NC(=S)Nc2cccc(C)n2)cc1	1
COC(=O)NC(=S)Nc1ccc(Oc2ccc(Cl)cc2Cl)c(Cl)c1	1
O=C(NC(=S)Nc1ccccc1)c1cc(-c2ccccc2)nc2ccccc12	0.5
C=CCNC(=S)NNC(=O)COc1ccc(Cl)cc1Cl	0.5
CCc1ccc(NCc2cc3c(C)nn(-c4ccccc4)c3[nH]c2=O)cc1	0
CN(C)CCCOc1nc2c(c(=O)n(C)c(=O)n2C)n1C	1.5
O=C(NNC(=O)c1cccnc1SCc1cccc([N+](=O)[O-])c1)c1ccccn1	1
CC1=NN(C(N)=S)C(=O)C1N=Nc1ccccc1C (stereo not drawn)	1
Cc1ccc(C(=O)NNC(=S)NC(=O)COc2ccccc2)cc1	1
CN1CC=C2C(C#N)=C(N)C(C#N)(C#N)[C@H](c3cccc(Cl)c3)C2C1 (stereo partly drawn)	3
O=C(NNC(=O)c1cccnc1SCc1cccc([N+](=O)[O-])c1)c1cccnc1	0
COC(=O)CSc1nc2ncccc2[nH]1	0
CC(=O)c1ccc(N2CCCC2)c(F)c1	0
O=C(COc1ccc(Cl)cc1Cl)NNC(=S)Nc1ccc(F)cc1	1
O=C(NCCCCNC(=O)c1cccnc1)c1cccnc1	0
O=C(NC(=S)Nc1ccccn1)c1cc(-c2ccccc2)nc2ccccc12	1
COc1ccc2c(c1)C(C)=CC(C)(C)N2C(=O)CNCc1ccc2c(c1)OCO2	0
CCC(C)c1ccc(NC(=S)Nc2ccc(OC)c(OC)c2)cc1 (stereo not drawn)	0
Cc1cccc(NC(=S)NC(=O)c2cc(-c3ccccc3)nc3ccccc23)c1	0
O=C(N/N=C(\c1ccccc1)c1cccnc1)C(O)(c1ccccc1)c1ccccc1	-1

###

test: thallium influx changes without GIRK channels – cell-based, HEK-293 rmGlu8, no GIRK, thallium flux, counter-screen for GIRK activator project, confirmation (AID 623868); settings: thallium flux fluorescence, at 10 µM, actives lie on both sides, codes: 1 enhancer, -1 blocker, 0 none, thallium stimulus containing EC20 glutamate;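 further: extra codes mark interference with 3 for fluorescent and 4 for baseline rise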
About 760 (36%) of roughly 2,100 compounds were called active. These entries were drawn from the full list.

COMPOUND	manual score
O=C(Nc1nc(=O)c2ccccc2s1)c1ccc(F)cc1	1
O=C(CSc1nc(CCC2CCCC2)nc2ccccc12)NCc1ccc2c(c1)OCO2	0.5
Cn1sc(NC(=O)c2cccc(Cl)c2)nc1=O	-1
O=C(Cc1ccccc1)Nc1nc(=O)c2ccccc2s1	1
CC1Cc2nc(SCC(=O)Nc3nc4ccccc4s3)n(C)c(=O)c2S1 (configuration not stated)	-1
COc1ccc(C(=O)NC(=S)NCCO)cc1Br	1
CCOC(=O)c1ccc(NC(=O)Nc2ccc(OC)c(OC)c2)cc1	0
COc1cccc(C(=O)Nc2nc(-c3ccccc3)c(-c3ccccc3)o2)c1	1
O=C(NC(=S)N(Cc1ccccc1)Cc1ccccc1)c1ccccc1F	1
C/C(=N\NC(=S)NCCc1ccccc1)c1cccs1	3
Cc1cc2c(cc1C)C(=O)NC(C)(C)C2	0
S=c1nn[nH]n1C12CC3CC(CC(C3)C1)C2	1
CC(C)CC(=O)NC(=S)Nc1nc(-c2cccc3ccccc23)cs1	0
CN1C(=O)c2oc3ccccc3c(=O)c2C1c1ccccn1 (configuration not stated)	0
CCOC(=O)c1c(CNCCN(CC)CC)n(C)c2cc(Br)c(OC)cc12	0
S=c1[nH]nc(-c2ccco2)n1/N=C/c1ccc(Br)s1	1
CC1=C(C(=O)Nc2cccnc2)C(c2ccc3c(c2)OCO3)C2=C(CCCC2=O)N1 (configuration not stated)	0
Cc1cccc(NC(=O)NC(C)CCc2ccccc2)c1 (configuration not stated)	0
CCN=c1scc(-c2ccco2)n1/N=C/c1ccc(O)cc1	0
CCN(CC)C(=O)CSc1nnc(NC(=O)CCc2ccccc2)s1	0
C=CCN(CC=C)C(=S)NC(=O)c1ccc(OC)c(Br)c1	1
CCCc1cc(=O)n2[nH]c(-c3ccc(Br)cc3)cc2n1	0
FC(F)(F)Oc1ccc(NC(=S)NCc2ccccc2)cc1	0
Cc1nnc2n(C3CCCCC3)c(=O)c3c4c(sc3n12)COC(C)(C)C4	-1
O=C(Nc1nc2ccccc2s1)c1cc(-c2ccccc2)nn1-c1ccccc1	0
CC(C)CC(=O)NC(=S)N(Cc1ccccc1)Cc1ccccc1	1
O=C(Nc1nc(=O)c2ccccc2s1)c1ccc(Cl)cc1	1
Cc1cc(-c2n[nH]c(=S)n2/N=C/c2ccc(Br)s2)n[nH]1	1
C=CCN(CC=C)C(=S)NC(=O)/C=C/c1ccc(C)cc1	1
COc1cccc(C(=O)NCc2cn3ccsc3n2)c1	0
O=C(COC(=O)CCC1CCCC1)Nc1nc2c(F)c(F)c(F)cc2s1	0
Cc1cccc(NC(=S)NC(=O)CCc2ccccc2)c1	1
CCOC(=O)N/N=C/c1c(C)nn(-c2ccccc2Cl)c1Cl	0
S=c1[nH]nc(-c2ccccn2)n1/N=C/c1ccc(Br)s1	1
O=C(NN=C1c2ccccc2-c2ccccc21)c1ccccc1Br	1
CC1(C)Cc2ccccc2-c2nnc(SCC(=O)Nc3nc4ccccc4s3)n21	0
O=C(Nc1cc(Cl)ccc1Oc1ccccc1)c1ccccc1F	0
COc1cc(/C=C(\C#N)C(=O)Nc2cccnc2)ccc1OC(C)C	0
S=C1NC2=C(CCCC2)C2(CCCCC2)N1	0
CC(C)Cc1nnc(NC(=O)CSc2nc(=O)cc(N)n2-c2ccccc2)s1	0
O=C(N/N=C/c1ccc([N+](=O)[O-])s1)c1cccc(Br)c1	0.5
O=C(Cc1ccccc1)Nc1nc(-c2cccs2)cs1	0
Cc1oc(-c2ccccc2F)nc1CS(=O)(=O)CC(=O)NCCN(C)C1CCCCC1	0
Cc1ccc(NCC(=O)Nc2cccc(S(=O)(=O)N(C)C)c2)c(Cl)c1	0
C1CCC2(CC1)OCC1(CO2)COC2(CCCCC2)OC1	0
COc1cc(NC(=O)Cn2nnc(-c3ccccc3N)n2)cc(OC)c1	0
FC(F)(F)c1cccc(NC(=S)NCc2ccccc2)c1	0

###

experiment: thallium influx changes without GIRK channels – cell-based, HEK-293 rmGlu8, no GIRK, thallium flux, counter-screen for GIRK activator project, confirmation (AID 623868); details: thallium flux fluorescence, at 10 µM, actives lie on both sides, codes: 1 enhancer, -1 blocker, 0 none, thallium stimulus containing EC20 glutamate;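 further: extra codes mark interference with 3 for fluorescent and 4 for baseline rise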
The campaign covered roughly 2,100 compounds. About 760 (36%) were called active.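 The calls were made as follows: active = thallium-flux fluorescence traces judged by eye to show enhanced or reduced glutamate response, manual score 1 or -1, so both directions (some results past the limit were not filed as active); inactive = the rest, including fluorescent or raised-baseline compounds.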 These entries were drawn from the full list.
Outcomes: label 1 (active), label 0 (inactive)

COMPOUND	LABEL_CLASS
Cc1cccc(C)c1NC1=NC(=S)N(c2ccc(N(C)C)cc2)C1(C)C	label 1
O=C1OCCC1Sc1nc2cc(Cl)ccc2n1Cc1ccccc1 (stereo unspecified)	label 1
O=C(Nc1nnc(-c2ccc(Cl)cc2)o1)c1ccccc1Br	label 1
CCCCCc1nnc(NC(=O)Cc2cccs2)s1	label 0
Cc1cc2cc3c(cc2nc1SCC(=O)N1CCN(C(=O)c2ccco2)CC1)OCO3	label 1
CCN(CC)S(=O)(=O)c1cc(NC(=O)Cn2cnc3ccccc3c2=O)ccc1C	label 0
CC1CCc2nn(CC(=O)N3CCN(C(=O)c4ccco4)CC3)cc2C1 (stereo unspecified)	label 0
CC(C)NC(=O)c1nc2ccccc2s1	label 0
CCN(c1ccc2c(c1)OCO2)S(=O)(=O)c1cc(Br)cc2c1N(C(=O)C1CC1)CC2	label 0
O=C(Nc1nnc(-c2ccc(Cl)cc2)o1)C1=COCCO1	label 0
O=C1CC(C(=O)Nc2ccc(Br)cc2)C2(CCCC2)O1 (stereo unspecified)	label 0

###

assay: thallium influx changes without GIRK channels – cell-based, HEK-293 rmGlu8, no GIRK, thallium flux, counter-screen for GIRK activator project, confirmation (AID 623868); details: thallium flux fluorescence, at 10 µM, actives lie on both sides, codes: 1 enhancer, -1 blocker, 0 none, thallium stimulus containing EC20 glutamate;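 further: extra codes mark interference with 3 for fluorescent and 4 for baseline rise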
About 760 (36%) of roughly 2,100 compounds were called active.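 How the source made its calls: active means thallium-flux fluorescence traces judged by eye to show enhanced or reduced glutamate response, manual score 1 or -1, so both directions (some results past the limit were not filed as active); inactive means the rest, including fluorescent or raised-baseline compounds.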 The list is a sample of the results.
Outcomes: active, inactive

COMPOUND	LABEL_CLASS
COC(=O)c1sccc1NC(=O)CSc1ccccc1NS(=O)(=O)c1ccccc1Cl	active
CCCCCCn1c(=O)[nH]c2nc3cc(N)ccc3nc2c1=O	inactive
O=C(CSc1cccc2cccc(Cl)c12)NCc1cccs1	inactive
CC1(C)Cc2c(sc3[nH]c(=S)n(Cc4ccco4)c(=O)c23)CO1	active
COc1ccc(Cn2nnnc2C(c2ccc(F)cc2)N2CCN(C3CCCC3)CC2)cc1 (stereo not given)	inactive
O=S(=O)(Nc1nc(-c2sccc2Cl)cs1)c1cc(Cl)ccc1Cl	inactive
CC(C)C1Cc2c(sc3[nH]c(=S)n(Cc4ccccc4)c(=O)c23)CO1 (stereo not given)	active
COC(=O)c1sccc1NC(=O)CSc1ccccc1NS(=O)(=O)c1ccc(Cl)cc1	inactive
CC1(C)Cc2c(sc3[nH]c(=S)n(Cc4ccccc4)c(=O)c23)CO1	active
CCC1(C)Cc2c(sc3[nH]c(=S)n(Cc4ccccc4)c(=O)c23)CO1 (stereo not given)	active
